Test system: HCT116 human colon cancer cells
experimental-protocol: Cell proliferation (cell confluence), IncuCyte Live-Cell Analysis system
Type: cell-based
condition: Homo sapiens, HCT-116; mean ± SD; HCT116; at ~90% confluence of control; read-out: IC50 Cell Proliferation (FIG. 1)
Reported IC50 values for a set of molecules
readout-label: IC50 (µM)

1) NC(=O)NOCCCCCCCCCC[P+](c1ccccc1)(c1ccccc1)c1ccccc1.O=C([O-])C(F)(F)F [Mito10-HU, trifluoroacetate] ... 8.5
2) NC(=O)NOCCCCCCCCCCCCCCCC[P+](c1ccccc1)(c1ccccc1)c1ccccc1.O=C([O-])C(F)(F)F [Mito16-HU, trifluoroacetate] ... 0.5
3) NC(=O)NOCCCCCCCCCCCCCCCCCCCC[P+](c1ccccc1)(c1ccccc1)c1ccccc1.O=C([O-])C(F)(F)F [Mito20-HU, trifluoroacetate] ... 0.23
4) NC(=O)NO [HU, Hydroxyurea] ... 180
5) NC(=O)NOCCCCCCCCCCCCCC[P+](c1ccccc1)(c1ccccc1)c1ccccc1.O=C([O-])C(F)(F)F [Mito14-HU, trifluoroacetate] ... 0.9
6) NC(=O)NOCCCCCCCCCCCC[P+](c1ccccc1)(c1ccccc1)c1ccccc1.O=C([O-])C(F)(F)F [Mito12-HU, trifluoroacetate] ... 1.8
